Consider the following binders and their measured pKd readings.
Target: T1, Human BCMA (human, UniProt Q02223 1-54, limits assumed)
T1 construct: also called huBCMA; B-cell maturation antigen
T1 sequence (looked up): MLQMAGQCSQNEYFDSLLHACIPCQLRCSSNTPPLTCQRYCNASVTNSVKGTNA
Experiment: SPR, IgG immobilised, human BCMA analyte
pKd: −log10 of the molar value.
Measured Parameter: pKd

Binder: C01_Rd4_0.6nM_C27 (antibody, V domains shown, IgG) VH: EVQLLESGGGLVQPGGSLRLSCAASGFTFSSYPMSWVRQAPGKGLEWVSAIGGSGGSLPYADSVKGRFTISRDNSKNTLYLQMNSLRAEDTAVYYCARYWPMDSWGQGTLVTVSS VL: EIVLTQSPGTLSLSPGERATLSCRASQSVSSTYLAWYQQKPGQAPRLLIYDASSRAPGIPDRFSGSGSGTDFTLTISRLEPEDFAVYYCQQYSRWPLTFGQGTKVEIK
Value Measured: 9.52
--
Binder: COMBO_Rd4_0.6nM_C11 (antibody, V domains shown, IgG) VH: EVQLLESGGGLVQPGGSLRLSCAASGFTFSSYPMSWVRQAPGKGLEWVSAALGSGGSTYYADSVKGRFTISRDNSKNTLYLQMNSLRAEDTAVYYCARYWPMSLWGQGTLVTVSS VL: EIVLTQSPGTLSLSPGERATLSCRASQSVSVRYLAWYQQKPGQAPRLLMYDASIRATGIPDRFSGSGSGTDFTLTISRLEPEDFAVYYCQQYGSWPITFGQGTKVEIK
Value Measured: 9.68
--
Binder: A02_Rd4_0.6nM_C06 (antibody, V domains shown, IgG) VH: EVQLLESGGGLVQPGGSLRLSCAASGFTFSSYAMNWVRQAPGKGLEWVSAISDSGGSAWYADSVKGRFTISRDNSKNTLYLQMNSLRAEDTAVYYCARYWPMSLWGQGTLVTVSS VL: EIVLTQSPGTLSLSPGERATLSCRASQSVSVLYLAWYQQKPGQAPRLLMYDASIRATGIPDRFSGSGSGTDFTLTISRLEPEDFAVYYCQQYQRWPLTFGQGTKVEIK
Value Measured: 10.68
--
Binder: A02_Rd4_6nM_C23 (antibody, V domains shown, IgG) VH: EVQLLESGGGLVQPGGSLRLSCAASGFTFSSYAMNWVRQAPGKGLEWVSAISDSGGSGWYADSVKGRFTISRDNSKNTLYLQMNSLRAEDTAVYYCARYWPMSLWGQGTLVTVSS VL: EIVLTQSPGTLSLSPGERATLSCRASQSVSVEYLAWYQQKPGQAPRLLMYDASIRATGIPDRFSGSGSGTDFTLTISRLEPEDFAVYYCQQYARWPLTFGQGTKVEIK
Value Measured: 10.68
--
Binder: C01_Rd4_6nM_C12 (antibody, V domains shown, IgG; also called PC1C12) VH: EVQLLESGGGLVQPGGSLRLSCAASGFTFSSYPMSWVRQAPGKGLEWVSAIGGSGGWSYYADSVKGRFTISRDNSKNTLYLQMNSLRAEDTAVYYCARYWPMDSWGQGTLVTVSS VL: EIVLTQSPGTLSLSPGERATLSCWLSQSVSSTYLAWYQQKPGQAPRLLIYDASSRAPGIPDRFSGSGSGTDFTLTISRLEPEDFAVYYCQQYSEWPLTFGQGTKVEIK
Value Measured: 9.27

Data provenance is patent US20160297884A1.
